Listing: IC50 of selected compounds
molecular target: KRAS G12D (Homo sapiens, UniProt P01116, G12D); construct: Recombinant human RAS protein (2 nM); assay: HTRF nucleotide exchange assay (NEA), KRAS G12D; details: recombinant human KRAS G12D aa1-188, 2 nM; lowest class = % inhibition at 10 μM
Sequence (P01116 1-188 isoform P01116-2 G12D): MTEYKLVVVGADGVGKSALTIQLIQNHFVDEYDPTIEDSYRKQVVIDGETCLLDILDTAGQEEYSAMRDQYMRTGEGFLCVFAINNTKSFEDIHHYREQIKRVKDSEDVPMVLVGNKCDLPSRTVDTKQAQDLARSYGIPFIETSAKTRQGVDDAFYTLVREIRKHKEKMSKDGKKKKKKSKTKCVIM

>>> recorded_measurement("[O-][S+]1CCCN(c2nc(OCC34CCCN3CCC4)nc3c(F)c(-c4cc(O)cc5ccccc45)ncc23)CC1 (centres unmarked) [Example 90]")
"≤ 10 nM"
>>> recorded_measurement("Oc1cc(-c2ncc3c(N4CCCSCC4)nc(OCC45CCCN4CCC5)nc3c2F)c2ccccc2c1 [Example 38]")
"10 to 100 nM"
>>> recorded_measurement("Oc1cc(-c2ncc3c(N4CCCC5(CCOC5)C4)nc(OCC45CCCN4CCC5)nc3c2F)c2ccccc2c1 (centres unmarked) [Example 56]")
"100 to 10000 nM"
>>> recorded_measurement("COCC1CCN(c2nc(OCC34CCCN3CCC4)nc3c(F)c(-c4cc(O)cc5ccccc45)ncc23)C1 (centres unmarked) [Example 33]")
"100 to 10000 nM"

Turning to the following compound.
Entry under test: Oc1cc(-c2ncc3c(N4CC5CC4CC5O)nc(OCC45CCCN4CCC5)nc3c2F)c2ccccc2c1 (centres unmarked) [Example 66] . Its IC50 was 100 to 10000 nM
